- Test system: PCSK9 mRNA
- method description: PCSK9 siRNA screening in HepG2 cells (lipofectamine 2000 transfection, PCSK9 mRNA by Quantigene, normalized to GAP-DH)
- Type: cell-based, human
- setup conditions: 30 nM siRNA
In the oligonucleotide strings, read from the 5' end, every base follows the letter of its sugar. An asterisk marks phosphorothioate; unmarked linkages are phosphodiester. Other units and linkages are bracketed, terminal groups are in braces. A string of capitals states the bases alone. d = 2'-deoxy (DNA); m = 2'-O-methyl; r = 2'-OH (RNA)
quantity measured: Mean percent remaining mRNA transcript at siRNA concentration/in cell type 30 nM/HepG2 (%)
Answers are plain numbers, in %.

Please state, for each entry, its recorded Mean percent remaining mRNA transcript at siRNA concentration/in cell type 30 nM/HepG2.
1. AD-9636: PCSK9 siRNA (sense rCrArUrArCrArGrArGrUrGrArCrCrArCrCrGrGdT*dT; antisense rCrCrGrGrUrGrGrUrCrArCrUrCrUrGrUrArUrGdT*dT)
2. AD-9630: PCSK9 siRNA (sense rGrGrGrCrArGrGrGrUrCrArUrGrGrUrCrArCrCdT*dT; antisense rGrGrUrGrArCrCrArUrGrArCrCrCrUrGrCrCrCdT*dT)
3. AD-9560: PCSK9 siRNA (sense rGrArGrUrUrUrArUrUrCrGrGrArArArArGrCrCdT*dT; antisense rGrGrCrUrUrUrUrCrCrGrArArUrArArArCrUrCdT*dT)
4. AD-9688: PCSK9 siRNA (sense mUmCmUmCmCmUrArGrAmCrAmCmCrArGmCrAmUrAdT*dT; antisense mUrArUrGrCrUrGrGrUrGrUrCmUrArGrGrArGrAdT*dT)
5. AD-9712: PCSK9 siRNA (sense rGrAmCrAmUmCrAmUmUrGrGmUrGmCmCmUmCmCrAdT*dT; antisense rUrGrGrArGrGmCrArCmCrArArUrGrArUrGrUrCdT*dT)
6. AD-9687: PCSK9 siRNA (sense rGrAmCrAmCmCrArGmCrAmUrAmCrArGrArGmUrGdT*dT; antisense mCrArCrUrCrUrGmUrArUrGrCrUrGrGrUrGrUrCdT*dT)
7. AD-9694: PCSK9 siRNA (sense rGmUmUrGrArGrGmCrArGrArGrAmCmUrGrAmUmCdT*dT; antisense rGrArUmCrArGrUrCrUrCrUrGrCrCrUmCrArArCdT*dT)
8. AD-9515: PCSK9 siRNA (sense rGrGrUrArCrCrGrGrGrCrGrGrArUrGrArArUrAdT*dT; antisense rUrArUrUrCrArUrCrCrGrCrCrCrGrGrUrArCrCdT*dT)

1: 42; 2: 82; 3: 97; 4: 26; 5: 107; 6: 84; 7: 52; 8: 49

For each of the substances below, note its Mean percent remaining mRNA transcript at siRNA concentration/in cell type 30 nM/HepG2.
1. AD-9685: PCSK9 siRNA (sense rGmUrGrAmCmCrAmCmCrGrGrGrArArAmUmCrGrAdT*dT; antisense rUrCrGrArUrUrUrCrCrCrGrGrUrGrGrUmCrArCdT*dT)
2. AD-9703: PCSK9 siRNA (sense mCrAmCmCrArArGrGrArGrGmCrArGrGrAmUmUmCdT*dT; antisense rGrArArUrCrCrUrGrCrCrUrCrCrUrUrGrGrUrGdT*dT)

1: 77; 2: 17

Reference source: patent US20120016009A1
